The measured values listed here are drawn from ChEMBL document CHEMBL1201862.

# system-name: High affinity choline transporter 1 (Homo sapiens, UniProt Q9GZV3)
# Sequence (Q9GZV3 whole entry): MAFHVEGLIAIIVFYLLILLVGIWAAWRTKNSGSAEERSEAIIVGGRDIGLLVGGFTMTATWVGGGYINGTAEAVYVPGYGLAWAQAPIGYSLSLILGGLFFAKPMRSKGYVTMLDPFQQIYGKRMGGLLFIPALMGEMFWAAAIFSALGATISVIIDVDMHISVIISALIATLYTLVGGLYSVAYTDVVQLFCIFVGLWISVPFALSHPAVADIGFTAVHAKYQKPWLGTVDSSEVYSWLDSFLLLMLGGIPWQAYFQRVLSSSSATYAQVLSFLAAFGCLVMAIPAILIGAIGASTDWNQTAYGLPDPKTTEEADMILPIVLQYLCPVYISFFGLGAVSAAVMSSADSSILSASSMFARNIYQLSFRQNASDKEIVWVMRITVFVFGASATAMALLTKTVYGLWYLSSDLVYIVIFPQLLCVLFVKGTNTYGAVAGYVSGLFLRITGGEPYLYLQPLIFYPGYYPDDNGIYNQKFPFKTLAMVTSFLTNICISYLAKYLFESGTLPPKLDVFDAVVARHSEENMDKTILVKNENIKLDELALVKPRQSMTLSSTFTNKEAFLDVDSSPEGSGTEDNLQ
# protocol-notes: human choline transporter blockers, potency – cell-based, 5-point CRC, membrane potential dye, dose response (AID 504840)
# Type: functional
Active and inactive are the calls of the source.
Recorded IC50 for the following molecules
measure-name: IC50

CC(C)c1nnc(NC(=O)c2nc(S(=O)(=O)Cc3ccccc3)ncc2Cl)s1 :: 4.47 µM (active)
COc1ccc(C(=O)N(C)C2CCCc3ccccc32)cc1OC1CCN(C(C)C)CC1 (stereo not given) :: 12.6 µM (active)
CC1(C)c2[nH]c3ccccc3c2C[C@@H]2C(=O)N(Cc3ccccc3)C(=O)N21 :: 12.9 µM (active)
Cc1cc(NS(=O)(=O)c2ccc(NC(=O)c3ccc(Cl)cc3Cl)cc2)no1 :: 5.81 µM (active)
Cc1ccc(-n2[nH]c(C)c(/C=N/Nc3ccc([N+](=O)[O-])cc3[N+](=O)[O-])c2=O)cc1C :: 10.5 µM (active)

---

Items are presented alongside their recorded EC50.
# system-name: Peroxisome proliferator-activated receptor gamma/Nuclear receptor coactivator 3 (Homo sapiens)
# Sequence (P37231 whole entry): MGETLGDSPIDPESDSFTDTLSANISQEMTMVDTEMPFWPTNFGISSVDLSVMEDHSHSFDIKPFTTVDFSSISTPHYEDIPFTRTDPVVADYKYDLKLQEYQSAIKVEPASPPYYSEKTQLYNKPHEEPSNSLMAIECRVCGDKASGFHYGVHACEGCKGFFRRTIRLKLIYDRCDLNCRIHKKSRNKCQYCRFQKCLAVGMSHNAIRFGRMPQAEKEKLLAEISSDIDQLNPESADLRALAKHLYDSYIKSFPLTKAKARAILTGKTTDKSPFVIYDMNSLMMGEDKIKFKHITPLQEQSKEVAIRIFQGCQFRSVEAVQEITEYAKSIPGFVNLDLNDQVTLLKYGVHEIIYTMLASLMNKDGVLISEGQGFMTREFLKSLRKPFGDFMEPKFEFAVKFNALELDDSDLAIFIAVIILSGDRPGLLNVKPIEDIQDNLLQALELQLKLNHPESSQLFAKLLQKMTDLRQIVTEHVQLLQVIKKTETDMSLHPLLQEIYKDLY
# Sequence (Q9Y6Q9 whole entry, further chain): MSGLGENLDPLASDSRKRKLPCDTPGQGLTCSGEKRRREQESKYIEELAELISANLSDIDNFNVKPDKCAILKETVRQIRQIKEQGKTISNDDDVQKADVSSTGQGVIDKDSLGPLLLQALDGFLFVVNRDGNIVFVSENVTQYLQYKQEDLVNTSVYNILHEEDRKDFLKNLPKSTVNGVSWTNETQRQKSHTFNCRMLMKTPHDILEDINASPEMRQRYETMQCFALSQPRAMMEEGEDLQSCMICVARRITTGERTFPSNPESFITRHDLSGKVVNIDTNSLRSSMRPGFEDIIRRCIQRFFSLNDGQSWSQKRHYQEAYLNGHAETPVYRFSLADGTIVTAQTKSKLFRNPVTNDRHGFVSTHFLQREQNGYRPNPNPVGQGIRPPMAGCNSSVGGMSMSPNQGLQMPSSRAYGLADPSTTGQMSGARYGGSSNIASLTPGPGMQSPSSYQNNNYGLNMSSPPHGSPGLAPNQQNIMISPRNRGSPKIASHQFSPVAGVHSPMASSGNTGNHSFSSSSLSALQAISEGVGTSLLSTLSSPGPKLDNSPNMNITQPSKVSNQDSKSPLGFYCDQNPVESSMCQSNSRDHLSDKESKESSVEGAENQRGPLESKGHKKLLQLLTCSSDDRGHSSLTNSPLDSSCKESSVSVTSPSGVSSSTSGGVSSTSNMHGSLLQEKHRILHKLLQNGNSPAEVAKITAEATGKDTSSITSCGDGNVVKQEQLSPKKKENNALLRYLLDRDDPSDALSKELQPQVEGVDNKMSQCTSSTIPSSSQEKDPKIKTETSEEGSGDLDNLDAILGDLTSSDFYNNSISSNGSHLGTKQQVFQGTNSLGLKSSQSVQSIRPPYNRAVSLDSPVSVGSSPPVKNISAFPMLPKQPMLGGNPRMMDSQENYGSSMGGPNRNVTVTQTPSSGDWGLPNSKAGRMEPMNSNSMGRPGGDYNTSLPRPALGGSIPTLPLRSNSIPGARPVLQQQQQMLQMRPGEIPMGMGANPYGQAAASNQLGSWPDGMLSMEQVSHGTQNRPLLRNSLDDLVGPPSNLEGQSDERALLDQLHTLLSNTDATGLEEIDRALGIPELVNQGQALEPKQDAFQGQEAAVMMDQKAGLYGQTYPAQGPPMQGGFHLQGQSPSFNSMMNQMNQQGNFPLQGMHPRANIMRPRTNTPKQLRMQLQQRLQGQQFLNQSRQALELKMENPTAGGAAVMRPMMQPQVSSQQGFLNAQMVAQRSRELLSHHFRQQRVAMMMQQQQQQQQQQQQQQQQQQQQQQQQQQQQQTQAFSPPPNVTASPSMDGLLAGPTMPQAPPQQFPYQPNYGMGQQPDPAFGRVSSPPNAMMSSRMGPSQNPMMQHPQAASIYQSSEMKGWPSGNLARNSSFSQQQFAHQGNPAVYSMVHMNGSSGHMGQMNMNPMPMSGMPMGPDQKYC
# protocol-notes: TR-FRET dose response biochemical High Throughput Screening assay for agonists of the steroid receptor coactivator 3 (SRC-3) recruitment by the peroxisome proliferator-activated receptor gamma (PPAR gamma): non-selective agonists. [Related pubchem assays: 1301 (Confirmation screen.), 1048 (Primary screen.)]
# Type: functional
measure-name: EC50

CCOc1ccc(NC(=O)CSc2ncnc3c2sc2ccccc23)cc1 :: 81.4 µM (not active)
CSc1cnn(Cc2ccccc2)c(=O)c1SCc1ccccc1 :: > 79.4 µM (not active)
COc1c(C)cccc1C(=O)NC(=S)Nc1cccc2nsnc12 :: 39.5 µM (not active)
CCn1c(=O)cc(SCC(=O)NCCN2CCN(Cc3ccccc3)CC2)c2ccccc21 :: > 79.4 µM (not active)
COc1cccc2cc(C(=O)C3=C(O)C(=O)N(Cc4ccco4)C3c3cccnc3)oc12 (stereo not given) :: > 79.4 µM (not active)

---

Here the recorded EC50 is given for each entry.
# protocol-notes: Luminescence Cell-Based Dose Confirmation HTS to Identify Inhibitors of Platelet Dense Granule Release. [Related pubchem assays: 1663 (Primary HTS), 1678 (Summary of Project)]
# Format: functional
The source made the active and inactive calls.
measure-name: EC50

O=c1cc(COc2ncnc3c(Cl)cc(Cl)cc23)nc2sccn12 :: > 112 µM (not active)
c1ccc2nc(-c3ccc(N4CCOCC4)cc3)ccc2c1 :: 3.7 µM (active)
CCOC(=O)N1CCN(C(=O)CCCN2C(=O)CSc3nc(C)cc(C)c32)CC1 :: > 112 µM (not active)
COc1ccc(/C=N/Nc2nccnc2Cl)c(OC)c1 :: 2.65 µM (active)
CC(=O)Nc1ccc(C(=O)N(C)c2ccccc2)cc1 :: > 112 µM (not active)
CCCCCc1nc2sc3c(c2c(=O)n1N)CCC3 :: > 112 µM (not active)
